biological target: KRas G12C (Homo sapiens (Human), UniProt P01116, G12C); test: Nucleotide exchange assay (NEA)-HTRF, SOS1 catalyzed displacement of GDP by GTP (Test Example 4)
Sequence (P01116-2 other isoform, or with tags, fused parts or gaps G12C): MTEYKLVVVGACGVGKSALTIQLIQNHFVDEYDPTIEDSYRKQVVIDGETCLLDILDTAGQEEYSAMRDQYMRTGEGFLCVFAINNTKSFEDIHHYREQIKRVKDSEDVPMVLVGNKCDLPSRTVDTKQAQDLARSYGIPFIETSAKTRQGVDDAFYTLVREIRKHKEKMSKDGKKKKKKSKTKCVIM
Consider the following molecules and their measured IC50 readings.

molecule	units_symbol	IC50
C=CC(=O)N1CCN2c3c(c(=O)n(-c4c(C(C)C)ncnc4C(C)C)c4c(F)c(-c5c(O)cccc5F)c(Cl)cc34)NC(=O)[C@H]2C1 (single isomer, unassigned) [Compound Z37-2]	nM	1900
C=CC(=O)N1C[C@@H]2C(=O)N(C)c3c(c4cc(Cl)c(-c5c(O)cccc5F)c(F)c4n(-c4c(C(C)C)ncnc4C(C)C)c3=O)N2C[C@H]1C (single isomer, unassigned) [Compound Z50-2]	nM	1450
C=CC(=O)N1CCN2c3c(c(=O)n(-c4c(C)ncnc4C(C)C)c4nc(-c5c(O)cccc5F)c(F)cc34)N(C)C(=O)[C@H]2C1 (single isomer, unassigned) [Compound Z21-2]	nM	3940
